- assayed-system: KRAS G12V (Homo sapiens (Human), UniProt P01116+P62937, G12V)
- Sequence (P01116-2 other isoform, or with tags, fused parts or gaps G12V, one chain of several): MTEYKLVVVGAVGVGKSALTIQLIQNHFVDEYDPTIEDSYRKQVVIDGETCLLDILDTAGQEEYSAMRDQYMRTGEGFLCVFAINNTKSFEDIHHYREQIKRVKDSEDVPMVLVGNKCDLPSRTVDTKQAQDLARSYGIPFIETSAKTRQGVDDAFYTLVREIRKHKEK
- procedure-details: Ras-Raf (BRAF RBD) disruption / FRET / MOA assay, KRAS G12V
- Assay type: biochemical
- run-conditions: read-out: IC50* KRAS G12V FRET data
assay-endpoint: IC50

{"compound": "C=CC(=O)N1CC[C@H](C(=O)N(C)[C@H](C(=O)N[C@H]2Cc3cccc(c3)-c3ccc4c(c3)c(c(-c3cnn(C)c3CN(C)C)n4CC)CC(C)(C)COC(=O)[C@@H]3CCCN(N3)C2=O)C(C)C)C1 (relative stereo)", "assayed-system": "KRAS G12V (Homo sapiens (Human), UniProt P01116+P62937, G12V)", "recorded-value": "> 10000 nM"}
{"compound": "C=CC(=O)N1CC2CCC1CN2C(=O)N(C)[C@H](C(=O)N[C@H]1Cc2nc(cs2)-c2ccc3c(c2)c(c(-c2cccnc2[C@H](C)OC)n3CC)CC(C)(C)COC(=O)[C@@H]2CCCN(N2)C1=O)C(C)C", "assayed-system": "KRAS G12V (Homo sapiens (Human), UniProt P01116+P62937, G12V)", "recorded-value": "100 to 1000 nM"}

====

- assayed-system: K-Ras G12C (Homo sapiens (Human), UniProt P01116+P62937, G12C)
- Sequence (P01116-2 other isoform, or with tags, fused parts or gaps G12C): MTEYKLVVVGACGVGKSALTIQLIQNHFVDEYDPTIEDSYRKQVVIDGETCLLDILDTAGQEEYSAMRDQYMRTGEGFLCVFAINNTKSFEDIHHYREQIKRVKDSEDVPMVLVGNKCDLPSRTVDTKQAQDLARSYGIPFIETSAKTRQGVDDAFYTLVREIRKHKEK
- Sequence (P62937 whole entry): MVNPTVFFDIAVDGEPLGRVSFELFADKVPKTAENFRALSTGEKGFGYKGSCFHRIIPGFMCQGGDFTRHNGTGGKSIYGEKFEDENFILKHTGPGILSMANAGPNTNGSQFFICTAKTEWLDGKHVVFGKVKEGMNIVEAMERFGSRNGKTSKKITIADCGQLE
- procedure-details: Ras-Raf (BRAF RBD) disruption / FRET / MOA assay, KRAS G12C
- Format: biochemical
- run-conditions: KRAS G12C; Ras-Raf disruption/FRET/MOA assay; read-out: IC50* KRAS G12C FRET data

{"compound": "CCn1c(-c2cnccc2COC)c2c3cc(ccc31)-c1cc(O)cc(c1)C[C@H](NC(=O)[C@H](C(C)C)N(C)C(=O)[C@H]1CCN(C(=O)C#CCN(C)C)C1)C(=O)N1CCC[C@H](N1)C(=O)OCC(C)(C)C2 (atropisomer, axis not shown)", "IC50": "< 10 nM"}
{"compound": "CCn1c(-c2cccnc2[C@H](C)OC)c2c3cc(ccc31)-c1csc(n1)C[C@H](NC(=O)[C@H](C(C)C)N(C)C(=O)N1C[C@H]3CN(C(=O)C#CC(C)(C)N(C)C)CC[C@H]31)C(=O)N1CCC[C@H](N1)C(=O)OCC(C)(C)C2 (atropisomer, axis not shown)", "IC50": "10 to 100 nM"}

====

- System: NCI-H358 (K-Ras G12C)
- procedure-details: CellTiter-Glo cell viability assay, NCI-H358
- Assay type: cell-based, human
- run-conditions: Homo sapiens, NCI-H358, 120 h, NCI-H358, 5-day treatment; class symbols; read-out: Additional H358 Cell Viability assay data (K-Ras G12C, IC50)
The reader will find reported IC50 values listed item by item below.
assay-endpoint: IC50

{"compound": "C=CC(=O)N1CC[C@H](C(=O)N(C)[C@H](C(=O)N[C@H]2Cc3cc(O)cc(c3)-c3ccc4c(c3)c(c(-c3ccc(CN5CC[C@@H](O)C5)cc3)n4CC)CC(C)(C)COC(=O)[C@@H]3CCCN(N3)C2=O)C(C)C)C1", "recorded-value": "100 to 1000 nM"}
{"compound": "C=CC(=O)N1CC[C@H](C(=O)N(C)[C@H](C(=O)N[C@H]2Cc3cccc(c3)-c3ccc4c(c3)c(c(-c3cccnc3[C@H](C)OC)n4CC)CC(C)(C)COC(=O)[C@@H]3CCCN(N3)C2=O)C2CC2)C1 (atropisomer, axis not shown)", "recorded-value": "10 to 100 nM"}
{"compound": "C=CC(=O)N1CCC(F)(C(=O)N(C)[C@H](C(=O)N[C@H]2Cc3cc(O)cc(c3)-c3ccc4c(c3)c(c(-c3ccccc3CN(C)C)n4CC)CC(C)(C)COC(=O)[C@@H]3CCCN(N3)C2=O)C(C)C)CC1", "recorded-value": "10 to 100 nM"}
{"compound": "CCn1c(-c2cccnc2[C@H](C)OC)c2c3cc(ccc31)-c1csc(n1)C[C@H](NC(=O)C[C@@H](C)OC1CN(C(=O)C#CC(C)(C)N(C)C)C1)C(=O)N1CCC[C@H](N1)C(=O)OCC(C)(C)C2 (atropisomer, axis not shown)", "recorded-value": "10 to 100 nM"}
